tested on: prostate cancer cell line (PC-3); assay: MTT anticancer activity, PC-3; assay type: cell-based, human; details: Homo sapiens, 72 h, PC-3, 72 h, mean ± SEM
pIC50: −log10 of the molar value.
result_type: pIC50

>  <molecule>
N#Cc1c(-c2cc3cc(Cl)ccc3[nH]c2=O)cc(-c2cccc(O)c2)nc1N [15b]

>  <result_type>
pIC50

>  <observed>
6.71

$$$$
>  <molecule>
N#Cc1c(-c2cc3cc(Cl)ccc3[nH]c2=O)cc(-c2cccc(O)c2)nc1S [14b]

>  <result_type>
pIC50

>  <observed>
6.85

$$$$
>  <molecule>
COc1ccc(NC(=O)COc2nc(-c3cccc(O)c3)cc(-c3cc4cc(OC)ccc4nc3N3CCOCC3)c2C#N)cc1 [11i]

>  <result_type>
pIC50

>  <observed>
7.20

$$$$
>  <molecule>
N#Cc1c(-c2cc3ccccc3[nH]c2=O)cc(-c2cccc(O)c2)nc1S [14a]

>  <result_type>
pIC50

>  <observed>
7.77

$$$$
>  <molecule>
N#Cc1c(-c2cc3ccccc3[nH]c2=O)cc(-c2cccc(O)c2)nc1N [15a]

>  <result_type>
pIC50

>  <observed>
6.62

$$$$
>  <molecule>
COc1ccc2[nH]c(=O)c(-c3cc(-c4cccc(O)c4)nc(S)c3C#N)cc2c1 [14c]

>  <result_type>
pIC50

>  <observed>
7.20

$$$$
>  <molecule>
COc1ccc2nc(N3CCOCC3)c(-c3cc(-c4cccc(O)c4)[nH]c(=O)c3C#N)cc2c1

>  <result_type>
pIC50

>  <observed>
7.57

$$$$
>  <molecule>
N#Cc1c(-c2cc3cc(Cl)ccc3nc2N2CCOCC2)cc(-c2cccc(O)c2)nc1S

>  <result_type>
pIC50

>  <observed>
6.92

$$$$
>  <molecule>
N#Cc1c(-c2cc3ccccc3nc2N2CCOCC2)cc(-c2cccc(O)c2)nc1S

>  <result_type>
pIC50

>  <observed>
6.90

$$$$
>  <molecule>
COc1ccc2nc(N3CCOCC3)c(-c3cc(-c4cccc(O)c4)nc(OCC(=O)Nc4ccccc4)c3C#N)cc2c1 [11g]

>  <result_type>
pIC50

>  <observed>
7.08

$$$$
>  <molecule>
COc1ccc2nc(N3CCOCC3)c(-c3cc(-c4cccc(O)c4)nc(OCC(=O)Nc4ccc(Cl)cc4)c3C#N)cc2c1 [11h]

>  <result_type>
pIC50

>  <observed>
7.15

$$$$
>  <molecule>
N#Cc1c(-c2cc3ccccc3nc2N2CCCCC2)cc(-c2cccc(O)c2)[nH]c1=O

>  <result_type>
pIC50

>  <observed>
7.27

$$$$
>  <molecule>
N#Cc1c(-c2cc3cc(Cl)ccc3nc2N2CCOCC2)cc(-c2cccc(O)c2)nc1OCC(=O)O

>  <result_type>
pIC50

>  <observed>
7.01

$$$$
>  <molecule>
N#Cc1c(-c2cc3cc(Cl)ccc3nc2N2CCOCC2)cc(-c2cccc(O)c2)[nH]c1=O

>  <result_type>
pIC50

>  <observed>
7.58

$$$$
>  <molecule>
COc1ccc2nc(N3CCOCC3)c(-c3cc(-c4cccc(OC(C)=O)c4)[nH]c(=O)c3C#N)cc2c1

>  <result_type>
pIC50

>  <observed>
7.00

$$$$
>  <molecule>
N#Cc1c(-c2cc3cc(Cl)ccc3nc2N2CCCCC2)cc(-c2cccc(O)c2)[nH]c1=O

>  <result_type>
pIC50

>  <observed>
7.39

$$$$
>  <molecule>
N#Cc1c(-c2cc3ccccc3[nH]c2=O)cc(-c2cccc(O)c2)[nH]c1=O [13a]

>  <result_type>
pIC50

>  <observed>
7.70

$$$$
